Origin of values: the nanobody polyreactivity screen of Harvey et al. (2022)

Assay: yeast display, Sf9 membrane polyspecificity reagent, FACS + sequencing; frameworks hold sequencing errors
READOUT TYPE: polyreactivity (PSR sort gate)

Consider the worked cases shown below.
# SEQUENCE TEXT, RECORDED RESULT
data = [
    ("QVQLVESGGGLVQAGGSLRLRCAASGGIFGRYAMGWNRQAPGKERELVAAISSRGGSTYYADSVKGRFTISRDNAKNTVYLQMNSLKPEDTAVYYCNALWVSYYTFRMDYWGQGTQVTVSS", "high polyreactivity"),
    ("QVQLVESGGGLVQAGGSLRLSCAASGRIFLVYVMGWYRQAPAKERELVAANSWSGGSTYYADSVKGRFTISRDNAKNTVYLQMNSLKPEDTAVYYFAAYYRGRNFDYWGQATQVTVSS", "high polyreactivity"),
    ("QVQLVESGGGLVQAGGSLRLSCAASASNYERYVMGWNRQAPGKERELVAAISRSGGTTYYADSVKGRFTISRDNAKNTVYLQMNSLKPEDTAVYYCAARVPHDSAGYDYWGQATQVTVSS", "high polyreactivity"),
    ("QVQLVESGGGLVQAGGSLRLSCAASGSIFYDYTMGWSRQAPGKERELVAAINSGGSTNYADSVKGRFTISRDNAKNTVYLQMNSLKPEDTAVYYCAAEPQFAFLDSRLWGSDYWGQGTQVTVSS", "low polyreactivity"),
    ("QVQHVESAGGLVQEAGSLRLRCAASGSTFYSYAMGWSRQAPGKERELVAAISRSGGRTNYADSVKGRFTISRDIAKNTVYLQMNSLKPEDTAVYYCNARHYLSAYDYWGQGTQVTVSS", "high polyreactivity"),
]

Batch of 7 sequences: report polyreactivity (PSR sort gate) for each.
1. QVQLVESGGGLVQAGGSLRLSCAASGSTFKQYAMGWYRQAPGKERELVAAISTIGGSTYYADSVKGRFTISRDNAKITVYLQMNSLKPEDTAVYYCAAEYWYIWPYNYWGLGTQVTVSS
2. QVQLVESGGGLVQAGGSLRLSCAASGSTFSYYAMGWYRQAPGKEWEFVAAISRSGGRTYYADSVKGRFTISRDNAKNTVYLQMNSLKPEDTAVYYCATVYYYDFSRTHPWPGDYWGQGTQVTVSS
3. QVQLVESGGGKVQAGGSLRLSCAASGLTFSRYAMGWYRQAPGKERELVAAISGRGASTSYADSVKGRFTISRDNAKNTVYLQMNSLKPEDTAVYYCAAQKYYHSYLNRHYYWGQGTQVTVSS
4. QVQLVESGGGLVQAGGSLRLSCAASGSIFSYYAMGWYRQAPGKERELVAAITISGSSTYYADSVKGRFTISRDNAKNTVYLQMNSLKPEDTAVYYCNVVPLGSKNSVSHYYWGQGTQVTVSS
5. QVQLVESGGGLVQAGGSLRLSCAASGFTFHRNAMGWYRQAPGKERELVAAISTRGGSTAYADSVKGRFTISRDNAKNTVYLQMNSLKPEDTAVYYCAAATSPGIYDYWGQGTQVTVSS
6. QGQLVESGGGLVQAGGSLRLSCAAAGFTFGSYAMGWYRHAPGKERELFARISSDGSTNYADSVKGRFTISSDNAKNTVYLQMNSLKPEDTAVYYCNADRQYTCSLVFFSSDYDYWGLGTQVTVSS
7. QVQLVESGGGLVQAGGSLRLSCASSGITFRVYAMGWYRQAPGKERELVAGISRGGRTSYADSVKGRFTISRDNAKNTVYLQMNSLKPEDTAVYYCAARQYRHRVKYYYWGQGTQVTVSS

1. high polyreactivity
2. high polyreactivity
3. high polyreactivity
4. high polyreactivity
5. high polyreactivity
6. low polyreactivity
7. high polyreactivity

Batch of 4 sequences: report polyreactivity (PSR sort gate) for each.
1. QVQLVESGGGLVQAGGSLRLSCAASGRTFYDNTMGWYRQAPGKERELVAAISRGGSTYADSVKGRFTISRDNAKNTVYLELNSLKPEDTAVYYSNKRSITTEYGYWGQGTQVTVSS
2. QVQLVESGGGLVQAGGSLRLSCAASGRTFFVYTMGWYRQAPGKERELVAAITSDTSTTYADSVKGRFTISRDNAKNTVYLQMISLKPEDTAVYYCAAEGYVGYYDYDYWGQGTQVTVSS
3. QVQLVESGGGLVQAGGSLRLSCAASGITFPVYAMGWYRQAPGKEREFVASIRFSTGRTYYADSVKARFTISRDYAKNTVYLQMNSLKPEDTAVYYCRGTTQSPYNSWGQGTQVTVSS
4. QVQLVESGGGLVQAGGSLRLSCAASGSIFRYNAMGWYRQAPGKERELVAVIRGTSGDTYYADSVKGRFTISRDNAKNTVYLQMNSLKPEDTAVYYCAAQLAGASYSHSNYSDWFDYWGQGTQVTVSS

["low polyreactivity", "low polyreactivity", "high polyreactivity", "low polyreactivity"]

----------
Assay: yeast display, Sf9 membrane polyspecificity reagent, FACS + sequencing; frameworks hold sequencing errors
READOUT TYPE: polyreactivity (PSR sort gate)

Consider the worked cases shown below.
# SEQUENCE TEXT, READOUT TYPE, RECORDED RESULT
rows = [
    ("QVQLVESGGGLVQAGGSLRLSCAASGSTFGRYAMGWYRQAPGKESELVAAISSSGGRTYYADSVKGRFTISRDNAKNTVYLQMNSLKPEDTAVYYCAAPGAQGLGLRGAGLDYWGQGTQVTVSW", "polyreactivity (PSR sort gate)", "high polyreactivity"),
    ("QVQLVESGGGLVQAGGSLRLSCAASGRILRGYVMGWSRQAPGKERELVATITGRGGSTYYADSVKGRFTISRDNAKNTVYLQMNSLKPEDTAVYYCNKDGYPYFGRSEYWGQGTQVTVSS", "polyreactivity (PSR sort gate)", "low polyreactivity"),
    ("QVQLVESGGGLVQAGGSLRLSCAASGRTFKPYAMGWYRQAPGKERELVAVITSNGSSTYYADSVKGRFTISRDNAKNTVYLQMNSLKPEDTAVYYCATKLTYTLTSGAYAYDYWGQGTQVTLSS", "polyreactivity (PSR sort gate)", "low polyreactivity"),
    ("QVQLVESGGGLVQAGGSLRLSCAASGFTFVYYAMGWYRQAPGKERALVASITQSGGSTRYADSVKGRFTISRDNAKNTVYLQMNSLKPEDTAVYYCNRRLYRRWGLDWQYYYWGQGTQVTVSS", "polyreactivity (PSR sort gate)", "high polyreactivity"),
]

Batch of 8 sequences: report polyreactivity (PSR sort gate) for each.
1. QVQLVESGGGLVQAGGSLRLSCSASGSTFSRYAMGWYRQAPGKEREFVAAISQRGGSTYYADSVKGRFTISRDNAKNTVYLQMNSLKPEDTAVYYCAARRVPQLDDYWGQGTQVTVSS
2. QVQLVESGGGLVQAGGSLRLSCAASGSTFSNNSIGWYRQAPWKETELVAAISWYGDSTYADSVKGRFTISRDNAKNTVYLQMNSLKAEATAVYYCAKDTIITPGRRKSPRDRHGYWGQGTQVTVSS
3. QVQLVESGGGLVQAGGSLRLSCAASGSIFWGNAMGWYRQAPGKERELVAAITSGGSTNYADSVKGRFTISRDNAKNTVYLQMNSLKPEDTAVYYCIADVARVPFEFDYWGQGTQVTVSS
4. QVQLVESGVRLVQAGGSLRLSCAASGFTFRLYAMGWYIQAPGKERELVAATTSGGSTYYADSVKGRFTISRDNAKNTVYLQMNSLKPEDTAVYYCNKLYRTSVEYDYWGQGTQVTVSS
5. QVQLVESRGGLVQAGGSLRLTCAASGSTFTHYAMGWYRQAPGKERELVAAISSGGGSTYYADSVKGRFTISRDNAKNTVYVQMNSLKPEDTAVYYCAVRSQFRAWRFYYWGQGTQVNVSS
6. QVQLVESGGGLVQAGGSLRLSCAASGTIFDSYAKVWYRQAPGKERELVAAISSSVGSTYYADSVKGRFTISRDNAKNTVYLQMNSLKPEDTAVYYCNADEYWASGYDPYDYWGQGTQVTVSS
7. QVQLVESGGGLVQAGGSLRLSCAASGSTFPVYVMGWYRQAPGKERELVATITIVVSTKYADSVKGRFTISRDNAKNTVYLQMNSLKPEDTAVYYCAKDDVYRDSYLVFDGEMDYWGQGTQVTVSS
8. QVQLVESGGGLVQAGGSLRLSCAASGLIFWYYAMGWYRQAPGKERELVATISWSGGSTYYADSVKGRFTISRDNAKNTVYLQMNSLKPEDTAVYYCAAVGFRAYVARGYWYYYWGQGTQVTVSS

1. high polyreactivity
2. low polyreactivity
3. low polyreactivity
4. high polyreactivity
5. high polyreactivity
6. low polyreactivity
7. low polyreactivity
8. high polyreactivity

----------
Assay: yeast display, Sf9 membrane polyspecificity reagent, FACS + sequencing; frameworks hold sequencing errors

# SEQUENCE TEXT, polyreactivity (PSR sort gate)
rows = [
    ("QVQIVESGGGLVQAGGSLRLSCADSGGTFRRYAMGWYRQAPGKEREFVARIYDGGTTYYADSVKGRFTISRDNAKNTVYLQMNSLKPEDTAVYYCAAYPYSRYYYYSNYYWGQGTQVTVSS", "high polyreactivity"),
    ("QVQLVESGGGLVQAGGSLRLSCAASGFIIRRYAMGRYRQAPGKEREMVASIDRSGASTYYADSVKGRLTISRDNAKYTVYLQMNSLKPEDTAVYYCNKAFAWTGWYSVQGDYWGQGTQVTVSS", "high polyreactivity"),
]
